The measured values listed here are drawn from paper PMC9146163.

System: SkBr3 cells
ASSAY_EXPLANATION: MTT assay, SkBr3
Type: cell-based, human
ASSAY_SETUP: MTT, 72 h; mean ± SD; read-out: IC50 SkBr3
pIC50: −log10 of the molar value.
Label Condition met for high-side pIC50 (at or above 5) and Condition not met for low-side pIC50 (below it).

Cn1ccn(CC([O-])c2ccccc2)[c]1=[Au+]=[c]1n(C)ccn1CC([O-])c1ccccc1.[Cl-].[Na+].[Na+] (stereo not shown): Condition not met
CC(=O)[O-].Cn1c(Cl)c(Cl)n(CC(O)c2ccccc2)[c]1=[Au+]=[c]1n(C)c(Cl)c(Cl)n1CC(O)c1ccccc1 (stereo not shown): Condition met
CC(=O)[O-].COC(Cn1ccn(C)[c]1=[Au+]=[c]1n(C)ccn1CC(OC)c1ccccc1)c1ccccc1 (stereo not shown): Condition met
CC(=O)[O-].Cn1ccn(CC(O)c2ccccc2)[c]1=[Au+]=[c]1n(C)ccn1CC(O)c1ccccc1 (stereo not shown): Condition not met

Continue with the compound presented below.
[Q] Can CC(=O)[O-].Cn1ccn(CC([O-])c2ccccc2)[c]1=[Au+]=[c]1n(C)ccn1CC([O-])c1ccccc1.[Na+].[Na+] (stereo not shown) be said to have pIC50 at or above 5?
[A] Condition not met

----------
ASSAY_EXPLANATION: LogP determination (1-octanol/water, UV/vis)
Assay type: physicochemical
ASSAY_SETUP: log[complex]oct/[complex]H2O, 55 μM, UV-Vis
Reported LogP is given for each of the following molecules.
The response must contain the number and no unit.

Some solved entries appear below for comparison.
Cn1ccn(CC([O-])c2ccccc2)[c]1=[Au+]=[c]1n(C)ccn1CC([O-])c1ccccc1.[Cl-].[Na+].[Na+] (centres unmarked) [Compound 1]: 0.079
CC(=O)[O-].Cn1ccn(CC(O)c2ccccc2)[c]1=[Au+]=[c]1n(C)ccn1CC(O)c1ccccc1 (centres unmarked) [Compound 5]: 0.12
CC(=O)[O-].Cn1ccn(CC([O-])c2ccccc2)[c]1=[Au+]=[c]1n(C)ccn1CC([O-])c1ccccc1.[Na+].[Na+] (centres unmarked) [Compound 2]: 0.047
CC(=O)[O-].Cn1c(Cl)c(Cl)n(CC(O)c2ccccc2)[c]1=[Au+]=[c]1n(C)c(Cl)c(Cl)n1CC(O)c1ccccc1 (centres unmarked) [Compound 6]: 0.78

[Q] # get_value(readout='LogP', item= COC(Cn1ccn(C)[c]1=[Au+]=[c]1n(C)ccn1CC(OC)c1ccccc1)c1ccccc1.[Cl-] (centres unmarked) [Compound 3] )
[A] 0.62

----------
Test system: Hek-293 cells
ASSAY_EXPLANATION: MTT assay, normal Hek-293
Format: cell-based, human
ASSAY_SETUP: MTT, 72 h; normal cells; mean ± SD; read-out: IC50 Hek-293
EXPERIMENTAL_READOUT: pIC50
Scale note: pIC50 = -log10(concentration in M).

See these solved cases before continuing.
CC(=O)[O-].Cn1c(Cl)c(Cl)n(CC(O)c2ccccc2)[c]1=[Au+]=[c]1n(C)c(Cl)c(Cl)n1CC(O)c1ccccc1 (stereo not shown) [Compound 6]: 4.49
CC(=O)[O-].COC(Cn1ccn(C)[c]1=[Au+]=[c]1n(C)ccn1CC(OC)c1ccccc1)c1ccccc1 (stereo not shown) [Compound 4]: 5.12

[Q] Requested read-out: pIC50. Entry: COC(Cn1ccn(C)[c]1=[Au+]=[c]1n(C)ccn1CC(OC)c1ccccc1)c1ccccc1.[Cl-] (stereo not shown) [Compound 3]
[A] 4.41

[Q] Find the recorded pIC50 belonging to N.N.[Cl][Pt][Cl] [Cisplatin, reference compound] and report it.
[A] 4.79

----------
Tested on: SkBr3 cells
ASSAY_EXPLANATION: MTT assay, SkBr3
Format: cell-based, human
ASSAY_SETUP: Homo sapiens, SK-BR-3, 72 h, read-out: IC50 SkBr3
EXPERIMENTAL_READOUT: pIC50
Here pIC50 is given on a logarithmic scale as minus log10 of the concentration in mol/L.

[Q] Lab note: need pIC50 with SkBr3 cells for entry C/C1=C/C(=O)O[C@@H]2C[C@@H](CC[C@H](C)/C=C\C=C\CC1)O[C@@](O)([C@@H]1CSC(=O)N1)C2 [Latrunculin A, reference compound] , please look it up.
[A] 6.15

----------
Attribute: pIC50
Tested on: MCF-10A cells
ASSAY_EXPLANATION: MTT assay, normal MCF-10A
Type: cell-based, human
ASSAY_SETUP: MTT, 72 h; normal cells; mean ± SD; read-out: IC50 MCF-10A
Method: The five employed cell lines were purchased from American Type Culture Collection (ATCC, Manassas, VA, USA) and maintained as already reported. […] SkBr3 cells were maintained in DMEM high glucose, supplemented with 10% FBS and 100 μg/mL penicillin/streptomycin. […] Results are represented as percent (%) of basal and the IC50 values were calculated using GraphPad Prism 9 (GraphPad Software, La Jolla, CA, USA).
The scale used: pIC50 is minus the common logarithm of the concentration in molar units.

CC(=O)[O-].COC(Cn1ccn(C)[c]1=[Au+]=[c]1n(C)ccn1CC(OC)c1ccccc1)c1ccccc1 (stereo not shown): 5.28
N.N.[Cl][Pt][Cl] [Cisplatin, reference compound]: 4.09
CC(=O)[O-].Cn1ccn(CC([O-])c2ccccc2)[c]1=[Au+]=[c]1n(C)ccn1CC([O-])c1ccccc1.[Na+].[Na+] (stereo not shown): 4.40

[Q] I would be grateful if you could share the reported pIC50 for CC(=O)[O-].Cn1c(Cl)c(Cl)n(CC(O)c2ccccc2)[c]1=[Au+]=[c]1n(C)c(Cl)c(Cl)n1CC(O)c1ccccc1 (stereo not shown) .
[A] 4.61

[Q] Request the reported pIC50 associated with CC(=O)[O-].Cn1ccn(CC(O)c2ccccc2)[c]1=[Au+]=[c]1n(C)ccn1CC(O)c1ccccc1 (stereo not shown)
[A] 4.56

[Q] // lookup pIC50 for COC(Cn1ccn(C)[c]1=[Au+]=[c]1n(C)ccn1CC(OC)c1ccccc1)c1ccccc1.[Cl-] (stereo not shown)
[A] 4.88

----------
Tested on: Hek-293 cells
ASSAY_EXPLANATION: MTT assay, normal Hek-293
Format: cell-based, human
ASSAY_SETUP: MTT, 72 h; normal cells; mean ± SD; read-out: IC50 Hek-293
Reported IC50 values for the following compounds.

The examples below pair each entry with its known result.
Cn1ccn(CC([O-])c2ccccc2)[c]1=[Au+]=[c]1n(C)ccn1CC([O-])c1ccccc1.[Cl-].[Na+].[Na+] (stereo not drawn): > 200 µM
CC(=O)[O-].Cn1ccn(CC([O-])c2ccccc2)[c]1=[Au+]=[c]1n(C)ccn1CC([O-])c1ccccc1.[Na+].[Na+] (stereo not drawn): > 200 µM

Consider the record given below.
[Q] // lookup IC50 for CC(=O)[O-].Cn1ccn(CC(O)c2ccccc2)[c]1=[Au+]=[c]1n(C)ccn1CC(O)c1ccccc1 (stereo not drawn)
[A] > 200 µM
